target: PDZRN4_1, Q6ZMN7; experiment: holdup assay; parameters: key: below the threshold = too weak to quantify, mostly under pKd 3.1 to 4; details: plain residues with an end cap or a label only (N-terminal biotin on a linker: ado-ado)
Sequence (Q6ZMN7 213-318): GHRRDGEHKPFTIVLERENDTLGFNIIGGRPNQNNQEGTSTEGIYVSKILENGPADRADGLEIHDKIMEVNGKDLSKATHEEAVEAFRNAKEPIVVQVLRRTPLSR
Measured Property: pKd

>>> measured_result("DTKNYKQTSV [CRIPT, Q9P021]")
4.12
>>> measured_result("PSVGSKKTVL [REELD1, A0A1B0GV85]")
"below the threshold"
>>> measured_result("KKMLQRRTLL [OR8G1, Q15617]")
"below the threshold"
>>> measured_result("SRSVVESDEL [MYPN, Q86TC9]")
"below the threshold"
>>> measured_result("LKDDELKTKL [SLCO1A2, P46721]")
"below the threshold"
>>> measured_result("ILRKSTTTTV [PRR16, Q569H4]")
"below the threshold"
>>> measured_result("RSSGGDDFWF [KCNV1, Q6PIU1]")
"below the threshold"
>>> measured_result("DPAESMESLV [PTPRG, P23470]")
3.72
